The reported numbers originate from ChEMBL document CHEMBL1201862.

# Test system: SK-OV-3
# assayText: NCI tumour cell line growth inhibition, 48 h
Active and inactive are the calls of the source. Cut-off read from the data, not from the text of the source: active = GI50 up to about 1.1 µM and inactive = higher.
Collected GI50 values appear next to each entry.

Look over these answered cases.
{"molecule": "O=c1c2sc(=S)n(-c3ccc(F)cc3)c2ncn1/N=C/c1ccc(F)cc1F", "GI50": "25.4 µM (inactive)"}
{"molecule": "COc1ccc(NC(=S)c2ccoc2C)cc1CC(=O)OC(C)C", "GI50": "54 µM (inactive)"}
{"molecule": "C(=C/CCCN1O[C@@H](CCCCCCCCc2cccnc2)[C@H]2CCC[C@H]21)/CCCCCCCCCc1cccnc1", "GI50": "19 µM (inactive)"}
{"molecule": "CC(C)C1=CC(=O)C(C)(C2C(O)CC3(C)C4CC=C5C(CCC(OC6OC(CO)C(O)C(O)C6OC6OC(C)C(O)C(O)C6O)C5(C)C)C4(C)C(=O)CC23C)O1 (stereo not drawn)", "GI50": "> 100 µM (inactive)"}
{"molecule": "CC12CC3CC(C)(C1)CC(N=[N+]=[N-])(C3)C2", "GI50": "> 100 µM (inactive)"}
{"molecule": "C=C(Cl)[C@](Cl)(CBr)CC[C@@H](Br)C(C)(C)Cl [HALOMON]", "GI50": "9.57 µM (inactive)"}

Req: Check the records and state GI50 for CC1CCC(=O)NCCCCC(=O)N1 (stereo not drawn)
Resp: > 100 µM (inactive)

Req: Check the records and state GI50 for CC(=O)OCC1OC(N=[N+]=[N-])C(OC(C)=O)C(OC(C)=O)C1OC1OC(COC(C)=O)C(OC(C)=O)C(OC(C)=O)C1OC(C)=O (stereo not drawn)
Resp: > 100 µM (inactive)

* * *

# Test system: SK-MEL-5
# assayText: NCI tumour cell line growth inhibition, 48 h
The source made the active and inactive calls. Rule as the data show it: active = GI50 up to about 1.1 µM and inactive = higher.
Collected GI50 values appear next to each entry.

Look over these answered cases.
{"molecule": "Nc1n[n+]([O-])c2ccc(Cl)cc2[n+]1[O-]", "GI50": "4.07 µM (inactive)"}
{"molecule": "O=C(C1OC1c1ccc(O)cc1)C12CC3CC(CC(C3)C1)C2 (centres undefined)", "GI50": "61.7 µM (inactive)"}
{"molecule": "O=C(O)C(Cc1c[nH]c2ccccc12)N1C(=O)c2ccccc2C1=O (centres undefined)", "GI50": "> 100 µM (inactive)"}
{"molecule": "CCC(=O)N(c1ccccc1)C(C)CN1CCC(O)(c2cccc(C(F)(F)F)c2)CC1 (centres undefined)", "GI50": "20.6 µM (inactive)"}
{"molecule": "COC1CC(OC2C(C)OC(OC3C(C)OC(OC4C(O)CC(O[C@H]5CC[C@@]6(C)C(=CC[C@]7(O)[C@@H]6C[C@@H](OC(C)=O)[C@@]6(C)[C@]7(O)CC[C@@]6(O)C(C)=O)C5)OC4C)CC3OC)CC2OC)OC(C)C1O (some centres undefined)", "GI50": "> 12.5 µM (inactive)"}

Req: Check the records and state GI50 for COc1cc(S(=O)(=O)Nc2ccc(-c3csc(/N=C\c4ccccc4O)n3)cc2)ccc1Cl
Resp: 70.5 µM (inactive)

Req: Check the records and state GI50 for COC(=O)c1c2c(cc3c1CC1(Cc4ccc(C(C)=O)cc4C1)C3)CCC2 (centres undefined)
Resp: 18 µM (inactive)

Req: Check the records and state GI50 for COc1cc(/C=C(\OC(C)=O)c2ccc3c(c2)OCO3)cc(OC)c1OC
Resp: 11.8 µM (inactive)

Req: Check the records and state GI50 for Oc1ccc(Cn2c(-c3ccc(O)cc3)nc3ccccc32)cc1
Resp: > 100 µM (inactive)

Req: Check the records and state GI50 for COC(=O)c1c(C(=O)OC)c2ccccn2c1-c1cc(C)cc2c1C(=O)C=CC2=O
Resp: 12.4 µM (inactive)

Req: Check the records and state GI50 for CCOC(=O)c1c(NC(=S)NCc2ccccc2)sc2c1CCN(C)C2
Resp: 45.1 µM (inactive)

Req: Check the records and state GI50 for C=C1C(=O)O[C@H]2C/C(C)=C/CC[C@@]3(C)O[C@](C)(CC[C@@H]3I)[C@@H](I)C[C@@H]12
Resp: 3.32 µM (inactive)

Req: Check the records and state GI50 for COc1cccc(NC(=S)Nn2c(C)nc3ccccc3c2=O)c1
Resp: > 100 µM (inactive)

Req: Check the records and state GI50 for COc1ccc(C2C(=O)C(Cl)N2Nc2nc(C)cc(O)n2)cc1OC (centres undefined)
Resp: 29.3 µM (inactive)
